# target: CXCL8 (Homo sapiens, UniProt P10145)
# Sequence (P10145 21-99, species assumed): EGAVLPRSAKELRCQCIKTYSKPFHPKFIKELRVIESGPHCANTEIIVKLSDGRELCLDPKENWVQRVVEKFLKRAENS
# test-protocol: Chemokine glycan microarray binding assay
# condition-notes: maximum RFU set as 100% binding, average across 2 glycan concentrations and 3 chemokine dilutions (n=6)
readout-name: mean rank binding to CXCL8 (%)

| compound | data-value |
| --- | --- |
| CC(=O)NC1C(O)[C@H](O)C(COS(=O)(=O)O)O[C@@H]1O[C@@H]1C(C(=O)O)O[C@@H](O[C@@H]2C(COS(=O)(=O)O)O[C@H](O[C@@H]3C(C(=O)O)O[C@@H](OCCCN)C(O)C3O)C(NC(C)=O)C2O)C(O)C1O (some centres unmarked) [Example 24] | 19 |

1. NCCOCCO[C@@H]1OC(C(=O)O)[C@@H](O)C(O)C1O (some centres unmarked) [Example 1]
2. CC(=O)NC1C(O)[C@H](O)C(CO)O[C@@H]1O[C@@H]1C(C(=O)O)O[C@@H](O[C@@H]2C(CO)O[C@H](O[C@@H]3C(C(=O)O)O[C@@H](OCCCN)C(OS(=O)(=O)O)C3O)C(NC(C)=O)C2O)C(OS(=O)(=O)O)C1O (some centres unmarked) [Example 14]
3. NCCOCCO[C@@H]1O[C@@H](C(=O)O)[C@@H](O[C@@H]2O[C@@H](C(=O)O)[C@@H](OS(=O)(=O)O)[C@H](O)[C@H]2OS(=O)(=O)O)[C@H](O)[C@H]1OS(=O)(=O)O [Example 6]
Could you please sort these 3 entries by mean rank binding to CXCL8 from high to low? Please write the labels in the order that was asked for.
3, 1, 2
(3: 73%, 1: 17%, 2: 2%)
